Where do the numbers come from? From ChEMBL document CHEMBL1137302.

target: D(2) dopamine receptor (Homo sapiens); test: Binding affinity to human D2S receptor
Sequence (P14416 whole entry): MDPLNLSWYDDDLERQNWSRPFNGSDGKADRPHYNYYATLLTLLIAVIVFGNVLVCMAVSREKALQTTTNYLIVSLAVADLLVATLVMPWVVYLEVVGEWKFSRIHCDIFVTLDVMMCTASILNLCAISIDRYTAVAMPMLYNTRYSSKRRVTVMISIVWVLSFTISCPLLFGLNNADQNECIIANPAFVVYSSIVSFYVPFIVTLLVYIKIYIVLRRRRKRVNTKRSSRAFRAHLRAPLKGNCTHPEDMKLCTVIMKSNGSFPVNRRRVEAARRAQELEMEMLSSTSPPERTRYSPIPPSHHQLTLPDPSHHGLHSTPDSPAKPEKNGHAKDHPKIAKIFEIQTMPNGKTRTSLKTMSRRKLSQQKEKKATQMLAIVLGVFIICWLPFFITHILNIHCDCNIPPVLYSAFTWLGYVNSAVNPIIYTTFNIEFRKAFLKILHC
measurement label: Ki

Worked cases, Ki given:
| compound structure string | assay system | Ki |
| --- | --- | --- |
| Cc1cc(F)ccc1NC(=O)CN1CCC(c2cccc[n+]2[O-])CC1 | D(2) dopamine receptor (Homo sapiens) | > 10 µM |
| Cc1cccc(NC(=O)CN2CCC(c3cccc[n+]3[O-])CC2)c1 | D(2) dopamine receptor (Homo sapiens) | > 10 µM |
| Cc1cccc(C(=O)NCN2CCC(c3cccc[n+]3[O-])CC2)c1 | D(2) dopamine receptor (Homo sapiens) | > 10 µM |

# input for lookup
Could you share which Ki value was measured for Oc1ccc(N2CCN(Cc3nc4ccccc4[nH]3)CC2)nc1 ? > 10 µM

----------
test: Cmax in monkey at 1 mg/kg, po; type: ADME, organism-based, Macaca mulatta; set-up: dose 1 mg/kg, route oral; conditions: rhesus monkey, in vivo
measurement label: Cmax (ng/mL)
Your answer should be a plain number; it is taken to be in ng/mL.

Could you share which Cmax value was measured for Cc1cccc(C(=O)NCN2CCC(c3cccc[n+]3[O-])CC2)c1 ? 660

----------
Each record here notes measured pEC50.
Target: UniProtKB P30729
Sequence (P30729 whole entry): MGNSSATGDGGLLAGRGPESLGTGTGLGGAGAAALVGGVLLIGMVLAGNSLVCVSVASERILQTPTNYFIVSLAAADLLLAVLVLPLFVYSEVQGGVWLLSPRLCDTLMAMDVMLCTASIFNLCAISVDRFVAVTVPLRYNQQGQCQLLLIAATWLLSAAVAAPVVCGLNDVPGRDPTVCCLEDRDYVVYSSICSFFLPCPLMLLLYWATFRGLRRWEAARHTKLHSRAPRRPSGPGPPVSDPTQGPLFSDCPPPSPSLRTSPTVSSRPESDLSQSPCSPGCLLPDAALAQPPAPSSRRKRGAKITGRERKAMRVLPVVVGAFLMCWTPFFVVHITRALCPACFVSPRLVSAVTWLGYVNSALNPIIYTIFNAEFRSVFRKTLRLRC
Assay: Agonist activity at rat D4 receptor in HEK293 cells coexpressing G-alpha-qo5 by FLIPR
Units for pEC50: none; it is -log10 of a concentration expressed in mol/L.

Worked cases, pEC50 given:
| compound structure string | assay system | pEC50 |
| --- | --- | --- |
| Oc1ccc(N2CCN(Cc3nc4ccccc4[nH]3)CC2)nc1 | UniProtKB P30729 | 7.86 |
| Cc1cccc(C(=O)NCN2CCC(c3cccc[n+]3[O-])CC2)c1 | UniProtKB P30729 | 7.03 |
| Cc1cccc(NC(=O)CN2CCC(c3cccc[n+]3[O-])CC2)c1 | UniProtKB P30729 | 7.24 |

# input for lookup
Could you share which pEC50 value was measured for Cc1cc(F)ccc1NC(=O)CN1CCC(c2cccc[n+]2[O-])CC1 ? 7.00

----------
target: D(2) dopamine receptor (Homo sapiens); assay: Agonist activity at human D2 receptor in HEK293 cells coexpressing G-alpha-qo5 by FLIPR
pEC50: −log10 of the molar value.
measurement label: pEC50

Could you share which pEC50 value was measured for COc1ccccc1C1CCN(CNC(=O)c2cccc(C)c2)CC1 ? < 5.00

----------
Each record here notes measured pKi.
target: UniProtKB P14416; assay: Displacement of [125I]7-OH-PIPAT from human D2L receptor expressed in HEK293 cell membrane; assay type: cell membranes
Units for pKi: none; it is -log10 of a concentration expressed in mol/L.

Worked cases, pKi given:
| compound structure string | assay system | pKi |
| --- | --- | --- |
| COc1ccccc1C1CCN(CNC(=O)c2cccc(C)c2)CC1 | UniProtKB P14416 | 7.57 |
| Cc1cccc(C(=O)NCN2CCC(c3ccccc3)CC2)c1 | UniProtKB P14416 | 6.63 |

Lab note: need pKi for Cc1cccc(C(=O)NCN2CCC(c3ccccn3)CC2)c1 on UniProtKB P14416, anyone have it? 5.46

----------
Each record here notes measured half-life.
test: Half life in Sprague-Dawley rat at 1 mg/kg, sc; type: ADME, organism-based; set-up: dose 1 mg/kg, route subcutaneous; settings: in vivo

Worked cases, half-life given:
| compound structure string | result |
| --- | --- |
| Cc1cccc(C(=O)NCN2CCC(c3ccccn3)CC2)c1 | 36 min |
| Cc1cccc(NC(=O)CN2CCC(c3ccccn3)CC2)c1 | 42 min |

Could you share which half-life value was measured for Cc1cccc(NC(=O)CN2CCC(c3cccc[n+]3[O-])CC2)c1 ? 30 min

----------
Each record here notes measured pEC50.
molecular target: D(4) dopamine receptor (Homo sapiens, UniProt P21917); experiment: Agonist activity at human D4.4 receptor in HEK293 cells coexpressing G-alpha-qo5 by FLIPR
Sequence (P21917 whole entry): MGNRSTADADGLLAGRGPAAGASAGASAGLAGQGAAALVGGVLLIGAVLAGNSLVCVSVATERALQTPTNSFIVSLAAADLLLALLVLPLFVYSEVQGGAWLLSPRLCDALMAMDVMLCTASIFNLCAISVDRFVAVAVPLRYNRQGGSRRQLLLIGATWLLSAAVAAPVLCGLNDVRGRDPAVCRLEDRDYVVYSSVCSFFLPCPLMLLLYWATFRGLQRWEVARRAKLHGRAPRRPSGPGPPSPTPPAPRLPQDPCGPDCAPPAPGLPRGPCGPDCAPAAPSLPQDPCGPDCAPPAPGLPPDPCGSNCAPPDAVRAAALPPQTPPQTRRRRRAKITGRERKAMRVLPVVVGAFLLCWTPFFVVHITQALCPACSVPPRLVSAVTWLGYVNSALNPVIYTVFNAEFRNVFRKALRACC
Units for pEC50: none; it is -log10 of a concentration expressed in mol/L.

| compound structure string | pEC50 |
| --- | --- |
| COc1cc(C(=O)NCN2CCC(c3cccc[n+]3[O-])CC2)ccc1Cl | 6.80 |

Could you share which pEC50 value was measured for O=C(NCN1CCC(c2cccc[n+]2[O-])CC1)c1ccc(F)c(Cl)c1 ? 7.20

Could you share which pEC50 value was measured for C=Cc1cccc(C(=O)NCN2CCC(c3cccc[n+]3[O-])CC2)c1 ? 7.17

Could you share which pEC50 value was measured for Cc1cc(C)cc(C(=O)NCN2CCC(c3cccc[n+]3[O-])CC2)c1 ? 7.05

Could you share which pEC50 value was measured for Cc1cccc(NC(=O)CN2CCC(c3ccc(O)cc3)CC2)c1 ? 7.15

Could you share which pEC50 value was measured for O=C(CN1CCC(c2cccc[n+]2[O-])CC1)Nc1cccc(F)c1 ? 6.80

----------
Each record here notes measured EC50.
molecular target: D(4) dopamine receptor (Homo sapiens); assay: Agonist activity at human D4.4 receptor in HEK293 cells coexpressing G-alpha-qo5 by FLIPR
Your answer should be a plain number; it is taken to be in nM.

Worked cases, EC50 given:
| compound structure string | EC50 (nM) |
| --- | --- |
| O=C(CN1CCC(c2cccc[n+]2[O-])CC1)Nc1cccc(OC(F)(F)F)c1 | 135 |
| Cc1ccc([N+](=O)[O-])cc1NC(=O)CN1CCC(c2cccc[n+]2[O-])CC1 | 134 |

Could you share which EC50 value was measured for Cc1cccc(C(=O)NCN2CCC(c3cccc[n+]3[O-])CC2)c1 ? 89

Could you share which EC50 value was measured for CSc1cccc(NC(=O)CN2CCC(c3cccc[n+]3[O-])CC2)c1 ? 100

Could you share which EC50 value was measured for Cc1cc(Br)ccc1NC(=O)CN1CCC(c2cccc[n+]2[O-])CC1 ? 66

Could you share which EC50 value was measured for CCc1cccc(C)c1NC(=O)CN1CCC(c2ccccn2)CC1 ? 111

Could you share which EC50 value was measured for Cc1ccc(C(=O)NCN2CCC(c3cccc[n+]3[O-])CC2)cc1C(F)(F)F ? 85

Could you share which EC50 value was measured for O=C(CN1CCC(c2cccc[n+]2[O-])CC1)Nc1cc(Cl)cc(Cl)c1 ? 160

Could you share which EC50 value was measured for O=C(CN1CCC(c2cccc[n+]2[O-])CC1)Nc1ccc(F)cc1F ? 103
